Test system: A549
Test: Cytotoxicity against human A549 cells assessed as inhibition of cell proliferation after 72 hrs by MTT assay
Assay type: functional, cell-based
Settings: A549, 72 h
pIC50: −log10 of the molar value.
Rule: pIC50 under 5 gives f, otherwise t.

Solved entries (count: 2):
| compound | systemTested | classification |
| --- | --- | --- |
| Cc1cc2occ(-c3nc(-c4ccccc4)c(-c4ccccc4)n3-c3ccc(Cl)c(Cl)c3)c(=O)c2cc1Cl | A549 | t |
| Cc1cc2occ(-c3nc(-c4ccccc4)c(-c4ccccc4)n3-c3cccc([N+](=O)[O-])c3)c(=O)c2cc1Cl | A549 | t |

Decide: pIC50 of COc1ccc(C2C(C#N)=C(N)Oc3c2c(=O)oc2ccccc32)c(OC)c1 (stereo unspecified) >= 5?
t

Is pIC50 at least 5? Consider Cc1cc2occ(-c3nc(-c4ccccc4)c(-c4ccccc4)n3-c3ccc([N+](=O)[O-])cc3)c(=O)c2cc1Cl
t

Can N#CC1=C(N)Oc2c(c(=O)oc3ccccc23)C1c1cc2ccccc2s1 (stereo unspecified) be said to have pIC50 at or above 5?
t

Does N#CC1=C(N)Oc2c(c(=O)oc3ccccc23)C1C1CC1 (stereo unspecified) have a reported pIC50 of at least 5?
f

Identify whether the reported pIC50 of the following compound is 5 or greater: COc1cccc(-n2c(-c3coc4cc(C)c(Cl)cc4c3=O)nc(-c3ccccc3)c2-c2ccccc2)c1
t

Quick check: does N#CC1=C(N)Oc2c(c(=O)oc3ccccc23)C1c1cnc2ccccc2c1 (stereo unspecified) have pIC50 greater than or equal to 5?
t

Say whether N#CC1=C(N)Oc2c(c(=O)oc3ccccc23)C1c1c2ccccc2cc2ccccc12 (stereo unspecified) shows pIC50 of 5 or more.
f

Given Cc1ccc(-n2c(-c3coc4cc(C)c(Cl)cc4c3=O)nc(-c3ccccc3)c2-c2ccccc2)c(C)c1 , state whether its pIC50 is at least 5.
t

Does pIC50 meet or surpass 5 for N#CC1=C(N)Oc2c(c(=O)oc3ccccc23)C1c1cc2ccccc2c2ccccc12 (stereo unspecified) ?
f

====

Target: DNA topoisomerase 2-alpha (Homo sapiens, UniProt P11388)
Sequence (P11388 whole entry): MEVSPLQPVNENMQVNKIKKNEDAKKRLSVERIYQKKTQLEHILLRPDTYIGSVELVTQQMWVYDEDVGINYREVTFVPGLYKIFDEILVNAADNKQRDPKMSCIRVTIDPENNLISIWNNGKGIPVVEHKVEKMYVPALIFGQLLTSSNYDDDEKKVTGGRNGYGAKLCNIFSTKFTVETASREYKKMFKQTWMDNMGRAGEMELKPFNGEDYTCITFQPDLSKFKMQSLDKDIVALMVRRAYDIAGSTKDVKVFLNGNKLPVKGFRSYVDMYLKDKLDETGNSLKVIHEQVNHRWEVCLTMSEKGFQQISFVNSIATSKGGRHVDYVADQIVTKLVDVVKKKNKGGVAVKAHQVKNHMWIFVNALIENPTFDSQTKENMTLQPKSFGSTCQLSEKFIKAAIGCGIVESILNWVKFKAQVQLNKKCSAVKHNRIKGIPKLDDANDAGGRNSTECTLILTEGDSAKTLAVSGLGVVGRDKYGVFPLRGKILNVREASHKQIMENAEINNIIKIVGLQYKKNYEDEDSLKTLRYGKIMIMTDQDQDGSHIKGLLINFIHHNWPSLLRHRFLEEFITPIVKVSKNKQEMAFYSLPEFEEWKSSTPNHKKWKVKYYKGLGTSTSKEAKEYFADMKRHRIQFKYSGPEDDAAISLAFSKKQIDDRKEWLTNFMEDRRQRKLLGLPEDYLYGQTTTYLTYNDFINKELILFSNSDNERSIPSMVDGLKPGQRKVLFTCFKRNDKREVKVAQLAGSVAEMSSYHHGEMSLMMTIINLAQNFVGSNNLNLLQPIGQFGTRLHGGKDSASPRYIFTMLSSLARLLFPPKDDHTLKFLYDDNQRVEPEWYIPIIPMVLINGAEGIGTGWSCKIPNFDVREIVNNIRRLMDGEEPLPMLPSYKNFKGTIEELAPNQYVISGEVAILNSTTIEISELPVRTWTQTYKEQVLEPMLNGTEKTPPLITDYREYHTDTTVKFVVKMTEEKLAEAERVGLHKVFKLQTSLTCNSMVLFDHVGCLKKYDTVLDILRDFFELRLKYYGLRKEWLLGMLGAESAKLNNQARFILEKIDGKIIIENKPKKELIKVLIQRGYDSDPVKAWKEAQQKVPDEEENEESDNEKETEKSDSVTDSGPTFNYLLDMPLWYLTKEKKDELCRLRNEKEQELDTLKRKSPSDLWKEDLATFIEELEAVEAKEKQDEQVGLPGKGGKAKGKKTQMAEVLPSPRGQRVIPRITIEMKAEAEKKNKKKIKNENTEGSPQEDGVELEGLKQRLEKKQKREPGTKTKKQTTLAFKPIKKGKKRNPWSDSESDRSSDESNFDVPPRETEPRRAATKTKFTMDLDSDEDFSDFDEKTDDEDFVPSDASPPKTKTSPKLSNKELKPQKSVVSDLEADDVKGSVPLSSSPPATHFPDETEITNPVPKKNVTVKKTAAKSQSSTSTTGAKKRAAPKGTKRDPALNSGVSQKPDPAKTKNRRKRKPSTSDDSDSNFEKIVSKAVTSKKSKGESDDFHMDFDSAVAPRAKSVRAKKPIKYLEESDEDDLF
Assay: Inhibition of human topoisomerase-2 alpha in human A498 cells assessed as decrease in relaxation of supercoiled DNA at 10 uM
Type: cell-based
// returns label 0 unless IC50 is strictly below 20 µM, in which case label 1

Consider the following illustrative entries.
| compound | classification |
| --- | --- |
| Cc1cc2occ(-c3nc(-c4ccccc4)c(-c4ccccc4)n3-c3ccc(Cl)c(Cl)c3)c(=O)c2cc1Cl | label 0 |
| Cc1cc2occ(-c3nc(-c4ccccc4)c(-c4ccccc4)n3-c3ccc([N+](=O)[O-])cc3)c(=O)c2cc1Cl | label 0 |
| N#CC1=C(N)Oc2c(c(=O)oc3ccccc23)C1c1cc2ccccc2s1 (configuration not stated) | label 1 |

API: the following record is the query input.
# strict comparison: is reported IC50 < 20 µM? input = N#CC1=C(N)Oc2c(c(=O)oc3ccccc23)C1c1cnc2ccccc2c1 (configuration not stated)
label 1

====

Listing of entries alongside the reported pIC50.
Test system: A549
Assay: Cytotoxicity against human A549 cells assessed as inhibition of cell proliferation after 72 hrs by MTT assay
Format: functional, cell-based
Conditions: A549, 72 h
Recall that pIC50 is obtained by taking minus log10 of the concentration measured in molar.

Answered examples (5):
| compound | observed |
| --- | --- |
| COc1ccccc1-n1c(-c2coc3cc(C)c(Cl)cc3c2=O)nc(-c2ccccc2)c1-c1ccccc1 | 4.90 |
| Cc1cccc(-n2c(-c3coc4cc(C)c(Cl)cc4c3=O)nc(-c3ccccc3)c2-c2ccccc2)c1 | 4.90 |
| Cc1ccc(-n2c(-c3coc4cc(C)c(Cl)cc4c3=O)nc(-c3ccccc3)c2-c2ccccc2)cc1 | 4.90 |
| Cc1cc2occ(-c3nc(-c4ccccc4)c(-c4ccccc4)n3-c3ccccc3Cl)c(=O)c2cc1Cl | 4.90 |
| Cc1cc2occ(-c3nc(-c4ccccc4)c(-c4ccccc4)n3-c3cccc(Cl)c3)c(=O)c2cc1Cl | 4.60 |

With A549 as the test system, Cc1cc2occ(C3C(C#N)=C(N)Oc4c3c(=O)oc3ccccc43)c(=O)c2cc1Cl (stereo not given) showed pIC50 of 5.20

Readout pIC50 for Cc1cc2occ(-c3nc(-c4ccccc4)c(-c4ccccc4)n3-c3ccc(Br)cc3)c(=O)c2cc1Cl , test system A549, was 4.60

====

pIC50 for assorted compounds
Biological target: DNA topoisomerase 2-alpha (Homo sapiens)
Experiment: Inhibition of human topoisomerase-2 alpha in human A498 cells assessed as decrease in relaxation of supercoiled DNA at 10 uM
Just so you know, pIC50 here is -log10 of the concentration in molar units; reply with that number alone.

| compound | systemTested | pIC50 |
| --- | --- | --- |
| N#CC1=C(N)Oc2c(c(=O)oc3ccccc23)C1c1cc(=O)c2ccccc2o1 (stereo not drawn) | DNA topoisomerase 2-alpha (Homo sapiens) | 4.58 |
| Cc1cc2occ(-c3nc(-c4ccccc4)c(-c4ccccc4)n3-c3ccc(Br)cc3)c(=O)c2cc1Cl | DNA topoisomerase 2-alpha (Homo sapiens) | 4.77 |

From here, focus on the item given below.
Record N#CC1=C(N)Oc2c(c(=O)oc3ccccc23)C1c1c[nH]c2ccccc12 (stereo not drawn) , field pIC50: 4.91

====

Tested on: A549
Test: Cytotoxicity against human A549 cells assessed as inhibition of cell proliferation after 72 hrs by MTT assay
Format: functional, cell-based
Details: A549, 72 h
endpointLabel: IC50
Numeric answer plus unit only.

Below, each entry is followed by its recorded IC50 result.
| molecule | systemTested | IC50 |
| --- | --- | --- |
| N#CC1=C(N)Oc2c(c(=O)oc3ccccc23)C1c1cc(=O)c2ccccc2o1 (stereo not drawn) | A549 | 1560 nM |
| Cc1cc2occ(-c3nc(-c4ccccc4)c(-c4ccccc4)n3-c3ccc(Cl)cc3)c(=O)c2cc1Cl | A549 | 12500 nM |

// next entry
Form field, IC50 with A549, item N#CC1=C(N)Oc2c(c(=O)oc3ccccc23)C1c1c[nH]c2ccccc12 (stereo not drawn) : 1560 nM
